This collection of values is drawn from ChEMBL document CHEMBL1641479.

Hi there, I'd appreciate the recorded inhibition at 10 µM for every entry that follows.
assay info: Antiplatelet activity against pig platelet assessed as inhibition of arachidonic acid-induced platelet aggregation at 10 uM by spectrophotometry
Assay type: functional
experimental parameters: Sus scrofa
Form entry: value (%) — number only.

Task item: What value of inhibition at 10 µM has been recorded for this entry: COC(=O)[C@H](Cc1ccc(O)cc1)N1C(=O)[C@@H]2Cc3ccccc3CN2C1(C)C
Reply: 52.2

Task item: Would you mind telling me what inhibition at 10 µM value was observed for O=C(O)[C@@H]1Cc2ccccc2CN1 ?
Reply: 10.4

Task item: Field request: inhibition at 10 µM | item: COC(=O)[C@H](C)N1C(=O)[C@@H]2Cc3ccccc3CN2C1(C)C
Reply: 40.5

Task item: GET /values?readout=inhibition at 10 µM&item= COC(=O)[C@H](C(C)C)N1C(=O)[C@@H]2Cc3ccccc3CN2C1(C)C
Reply: 32.4
